# Test system: LOX IMVI
# Test Description: NCI tumour cell line growth inhibition, 48 h
Calls of active or inactive are those of the source. No stated cut-off is given here; in the data, active = GI50 up to about 1.1 µM and inactive = higher.
Result category, one only: active, inactive

Problem: What outcome does the record of this test show for C=C1C2C[C@@H]3OC4CC5O[C@]6(CC5OC4C(C)C3OC(=O)CC3CC[C@@H]4OC5C7OC8C[C@](CCC9CC(=C)[C@H](CCC(C[C@H]1C)O2)O9)(OC7C4O3)O[C@@H]85)C[C@@H]1O[C@@]2(CC(C)[C@@H]3OC(CC(=O)CCO)C(O)C[C@@H]3O2)CC(C)[C@@H]1O6 (stereo partly drawn) ?
Solution: active

Problem: What outcome does the record of this test show for `COc1ccc(NC(=O)C2=CC(=O)c3ccc(O)cc3C2=O)c(OC)c1` ?
Solution: inactive

Problem: What outcome does the record of this test show for `COc1cc(-c2ccccc2N)c2cccnc2c1OC` ?
Solution: inactive

Problem: What outcome does the record of this test show for `COc1cc(C=C2C(=O)NC(=S)NC2=O)cc(OC)c1OC` ?
Solution: inactive

Problem: What outcome does the record of this test show for `CC(=O)Oc1c(-c2ccccc2)sc2ccccc12` ?
Solution: inactive

Problem: What outcome does the record of this test show for `O=Cc1ccc(OCc2cccc(COc3ccc(/C=N\Nc4ccc([N+](=O)[O-])cc4[N+](=O)[O-])cc3)n2)cc1` ?
Solution: inactive

Problem: What outcome does the record of this test show for `O=C(c1cccs1)N(C(=S)OCc1ccccn1)c1ccccc1` ?
Solution: inactive

Problem: What outcome does the record of this test show for `N#Cc1sc2c(c1OC(=O)c1cccs1)c(=O)n(-c1ccccc1)c(=S)n2-c1ccccc1` ?
Solution: inactive

====

# Tested on: COLO 205
# Test Description: NCI tumour cell line growth inhibition, 48 h
The source made the active and inactive calls. Cut-off read from the data, not from the text of the source: active = GI50 up to about 1.1 µM and inactive = higher.
Result category, one only: active, inactive

Problem: What outcome does the record of this test show for `O=C(O)c1nc2ccc(C(F)(F)F)cc2nc1NCc1ccc(Cl)c(Cl)c1` ?
Solution: inactive

Problem: What outcome does the record of this test show for `CC(=O)c1ccc(Oc2c3ccccc3nc3ccccc23)cc1` ?
Solution: inactive

Problem: What outcome does the record of this test show for `Cc1cc(N(CCOS(C)(=O)=O)CCOS(C)(=O)=O)ccc1/C=N/c1ccc(-c2csc(-c3ccccc3)n2)c(Cl)c1` ?
Solution: inactive

Problem: What outcome does the record of this test show for CC1=NN(C(=O)c2ccc(C)cc2)C(=O)C1/N=N/c1ccccc1C(=O)O (stereo not drawn) ?
Solution: inactive

Problem: What outcome does the record of this test show for `CC[C@]12C=CCN3CC[C@@]4(c5cc(Br)c(OC)cc5N(C)[C@H]4[C@@](O)(C(=O)N[C@@H](Cc4ccc(O)cc4)C(=O)OC)[C@@H]1O)[C@@H]32` ?
Solution: inactive

Problem: What outcome does the record of this test show for `CCCCCCc1cc2cc(C(=O)Nc3cccc(C(F)(F)F)c3)c(=N)oc2cc1O` ?
Solution: inactive

Problem: What outcome does the record of this test show for `Nc1ccc(S(=O)(=O)Nc2nnc(S(N)(=O)=O)s2)cc1` ?
Solution: inactive

Problem: What outcome does the record of this test show for `O=C(CO)CC(=O)C(=O)Nc1ccccc1` ?
Solution: inactive

Problem: What outcome does the record of this test show for Clc1ccc2c(c1)C1C(CO2)C(c2ccccc2)=NN1c1ccccc1 (stereo not drawn) ?
Solution: inactive

Problem: What outcome does the record of this test show for `Cc1ccc(C(=O)/C=C2\Nc3cccnc3NC2=O)cc1` ?
Solution: inactive

Problem: What outcome does the record of this test show for `CCOc1ccc(/C=C2\N=C(c3ccc([N+](=O)[O-])cc3)OC2=O)cc1` ?
Solution: inactive

Problem: What outcome does the record of this test show for `COc1cc2c(cc1C)NC(=O)/C2=C/c1cccnc1` ?
Solution: inactive

Problem: What outcome does the record of this test show for c1ccc2[nH]c(C3CCCCO3)nc2c1 (stereo not drawn) ?
Solution: inactive

Problem: What outcome does the record of this test show for `SC1=NC2(CCCCCC2)NN1c1ccccc1` ?
Solution: active

Problem: What outcome does the record of this test show for `COc1ccc(/C=C\c2cc(OC)c(OC)c(OC)c2)cc1OC(=O)NCCN(C)C` ?
Solution: active

Problem: What outcome does the record of this test show for COc1ccc(CC[N+]2(C)COc3cc4oc(=O)cc(C)c4cc3C2)cc1OC (stereo not drawn) ?
Solution: inactive

Problem: What outcome does the record of this test show for `Cc1c(O)c(=O)ccn1CCc1ccc(O)cc1` ?
Solution: inactive

Problem: What outcome does the record of this test show for `COC(=O)/C=C\Sc1ccn(/C=C\C(=O)OC)c(=S)n1` ?
Solution: inactive

Problem: What outcome does the record of this test show for COc1ccc(CCN(C)C2CCC(C#N)(c3ccc(OC)c(OC)c3)CC2)cc1OC (stereo not drawn) ?
Solution: inactive

Problem: What outcome does the record of this test show for COC(=O)C(Cc1ccccc1)NC(=O)CNC(=O)CSc1nnc(COc2ccc(Cl)cc2)n1-c1ccccc1 (stereo not drawn) ?
Solution: inactive

Problem: What outcome does the record of this test show for CC(C)CC(N)C(=O)O (stereo not drawn) ?
Solution: inactive

Problem: What outcome does the record of this test show for `CCOC(=O)COC1=Nc2cc(OC)c(OC)c3nc(Cl)cc(c23)C1=O` ?
Solution: inactive

Problem: What outcome does the record of this test show for `COc1cc2oc(-c3ccc(O)cc3)cc(=O)c2c(OC)c1OC` ?
Solution: inactive

Problem: What outcome does the record of this test show for O=c1ccn(/C=C/C(O)C(O)CO)c(=O)[nH]1 (stereo not drawn) ?
Solution: inactive

Problem: What outcome does the record of this test show for `CN/C(=N\C#N)N(Cc1ccccc1)Cc1ccccc1` ?
Solution: inactive

Problem: What outcome does the record of this test show for `CCOC(=O)c1nc(-c2ccccc2)oc1OCC` ?
Solution: inactive

Problem: What outcome does the record of this test show for COc1cc2c3c(c1OC)-c1ccccc1C(C(OC(C)=O)c1ccccc1)C3N(C)CC2 (stereo not drawn) ?
Solution: inactive

Problem: What outcome does the record of this test show for CC1(C)CC2(C)ON=C(c3ccccc3)N2c2ccccc2N1 (stereo not drawn) ?
Solution: inactive

Problem: What outcome does the record of this test show for `COc1cc2c(c(OC)c1OC)-c1ccc(SC)c(=O)cc1[C@@H](NCc1cccc(C#N)c1)CC2` ?
Solution: active

Problem: What outcome does the record of this test show for `COc1cc2cc[n+]3c(C)c4cc(OC)c(OC)cc4c([O-])c3c2cc1OC` ?
Solution: inactive

Problem: What outcome does the record of this test show for O=C1CCC2(c3ccc(F)cc3)Nc3ccccc3N12 (stereo not drawn) ?
Solution: inactive

Problem: What outcome does the record of this test show for CC(=O)NC1C(OC2C(CO)OC(OCC3OC(n4ccc(N)nc4=O)C(O)C3O)C(NC(C)=O)C2O)OC(CO)C(O)C1O (stereo not drawn) ?
Solution: inactive

Problem: What outcome does the record of this test show for `COc1ccc2c(c1)[n+]([O-])c(C(=O)C/C(=N/OCCCc1ccccc1)C(=O)NC13CC4CC(CC(C4)C1)C3)c(C)[n+]2[O-]` ?
Solution: inactive

Problem: What outcome does the record of this test show for `CSc1nncc(-c2cc3c(c(SC)n2)CCC3)n1` ?
Solution: inactive

Problem: What outcome does the record of this test show for `C#CCCOC(=O)c1ccccc1OC(C)=O` ?
Solution: inactive

Problem: What outcome does the record of this test show for `O=C1CCN2CCC(=O)c3c2c(cc2ccccc32)N1` ?
Solution: inactive

Problem: What outcome does the record of this test show for `CCOP(=O)(OCC)/C(=C\N1C(=O)CC(=O)NC1=S)C(=O)OC` ?
Solution: inactive

Problem: What outcome does the record of this test show for `CCN1C(=O)C(=C/C=C/c2ccc([N+](=O)[O-])cc2)C(=O)N(CC)C1=S` ?
Solution: inactive

Problem: What outcome does the record of this test show for `COc1ccc(NC(=O)C2=CC(=O)c3ccc(O)cc3C2=O)c(OC)c1` ?
Solution: inactive

Problem: What outcome does the record of this test show for `COc1cc(/C=C/C(=N\NC(=O)c2ccccc2)c2sc(Nc3ccc(Cl)c(Cl)c3)nc2C)ccc1O` ?
Solution: inactive

Problem: What outcome does the record of this test show for `O=c1oc2ccccc2c(-c2ccc(O)cc2)c1Oc1ccc(Cl)cc1` ?
Solution: inactive

Problem: What outcome does the record of this test show for `CCOC(=O)/C(=C/c1ccccc1)N(CC)CC` ?
Solution: inactive

Problem: What outcome does the record of this test show for `C[C@]12CCC(=O)C=C1CC[C@@H]1[C@@H]2CC[C@]2(C)C(=O)/C(=C/c3ccncc3)C[C@@H]12` ?
Solution: inactive
